- Subject of test: human DPP1 enzyme (Homo sapiens (Human))
- Sequence (P53634 25-134): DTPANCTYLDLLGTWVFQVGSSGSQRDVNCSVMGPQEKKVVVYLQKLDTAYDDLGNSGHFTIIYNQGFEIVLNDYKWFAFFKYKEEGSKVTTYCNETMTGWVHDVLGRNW
- Sequence (P53634 231-394): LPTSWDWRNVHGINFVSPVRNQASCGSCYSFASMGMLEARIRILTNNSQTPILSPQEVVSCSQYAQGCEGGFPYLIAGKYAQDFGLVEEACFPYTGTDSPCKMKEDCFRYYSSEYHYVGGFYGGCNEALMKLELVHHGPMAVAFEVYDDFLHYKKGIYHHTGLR
- Sequence (P53634 395-463): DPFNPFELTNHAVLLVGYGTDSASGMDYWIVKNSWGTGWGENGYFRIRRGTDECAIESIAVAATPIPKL
- Procedure summary: Human DPP1 enzyme IC50 assay
- Format: biochemical
- Test context: recombinant human DPP1, H-Gly-Arg-AMC substrate 400 μM
Readout label: IC50

Some solved cases for reference:
compound="CC(N)CC(=O)N[C@H](C#N)Cc1ccc(-c2ccc3oc(=O)n(C)c3c2)cc1 (some centres unmarked)" subject_of_test="human DPP1 enzyme (Homo sapiens (Human))" readout_label=IC50 experimental_value="≥ 15 nM"
compound="Cn1c(=O)oc2ccc(-c3ccc(C[C@@H](C#N)NC(=O)C(N)Cc4ncsc4Cl)cc3)cc21 (some centres unmarked)" subject_of_test="human DPP1 enzyme (Homo sapiens (Human))" readout_label=IC50 experimental_value="5 to 15 nM"
compound="Cn1c(=O)oc2ccc(-c3ccc(CC(C#N)NC(=O)C4(N)CCCC45CC5)c(F)c3)cc21 (stereo in doubt) [Compound 273A]" subject_of_test="human DPP1 enzyme (Homo sapiens (Human))" readout_label=IC50 experimental_value="≥ 15 nM"
compound="Cc1cn2cc(-c3ccc(C[C@@H](C#N)NC(=O)[C@](C)(N)C4CCC4)c(F)c3)cc2c(C)n1 [Compound 272A]" subject_of_test="human DPP1 enzyme (Homo sapiens (Human))" readout_label=IC50 experimental_value="≥ 15 nM"
compound="CC(O)CNCC(=O)N[C@H](C#N)Cc1ccc(-c2ccc3oc(=O)n(C)c3c2)cc1 (some centres unmarked)" subject_of_test="human DPP1 enzyme (Homo sapiens (Human))" readout_label=IC50 experimental_value="≥ 15 nM"
compound="Cn1c(=O)oc2ccc(-c3ccc(C[C@@H](C#N)NC(=O)C(C)(CN)Cc4c(F)cccc4Cl)cc3)cc21 (some centres unmarked)" subject_of_test="human DPP1 enzyme (Homo sapiens (Human))" readout_label=IC50 experimental_value="≥ 15 nM"

Tested on human DPP1 enzyme (Homo sapiens (Human)): CNC[C@H](OC)C(=O)N[C@H](C#N)Cc1ccc(-c2ccc3oc(=O)n(C)c3c2)cc1 . Observed IC50: ≥ 15 nM

Tested on human DPP1 enzyme (Homo sapiens (Human)): CCN1C(=O)Cc2ccc(-c3ccc(C[C@@H](C#N)NC(=O)[C@](C)(N)C4CCCC4)c(F)c3)cc21 [Compound 264B] . Observed IC50: ≤ 5 nM

Tested on human DPP1 enzyme (Homo sapiens (Human)): Cn1c(=O)oc2ccc(-c3ccc(C[C@@H](C#N)NC(=O)CCC(N)=O)cc3)cc21 . Observed IC50: ≥ 15 nM

Tested on human DPP1 enzyme (Homo sapiens (Human)): N#Cc1ccc(-c2ccc(C[C@H](C#N)NC(=O)C3(N)CCOCC3)c(I)c2)cc1 . Observed IC50: ≥ 15 nM

Tested on human DPP1 enzyme (Homo sapiens (Human)): COCCN(C)CCn1c(=O)oc2ccc(-c3ccc(C[C@@H](C#N)NC(=O)[C@@](C)(N)C4CCC4)c(F)c3)cc21 [Compound 270A] . Observed IC50: ≥ 15 nM

Tested on human DPP1 enzyme (Homo sapiens (Human)): CN(C)C[C@H](O)C(=O)N[C@H](C#N)Cc1ccc(-c2ccc3oc(=O)n(CCN4CCOCC4)c3c2)cc1F . Observed IC50: 5 to 15 nM

Tested on human DPP1 enzyme (Homo sapiens (Human)): CN(C)C[C@H](O)C(=O)N[C@H](C#N)Cc1ccc(-c2ccc3cnn(C4CCN(C5COC5)CC4)c3c2)cc1F . Observed IC50: 5 to 15 nM

Tested on human DPP1 enzyme (Homo sapiens (Human)): COCCN(C)CCn1c(=O)oc2ccc(-c3ccc(C[C@@H](C#N)NC(=O)[C@](C)(N)C4CCC4)c(F)c3)cc21 [Compound 270B] . Observed IC50: ≤ 5 nM

The measured values listed here are drawn from patent US20260008758A1.
